Form field: EC50 (one value per entry).
Biological target: T1, human TIGIT expressed on CHO-K1 cells (human, UniProt Q495A1 22-244)
T1 construct: whole, on cells; also called human TIGIT-CHO-K1 cells; human TIGIT over-expressing cell line
T1 sequence (looked up): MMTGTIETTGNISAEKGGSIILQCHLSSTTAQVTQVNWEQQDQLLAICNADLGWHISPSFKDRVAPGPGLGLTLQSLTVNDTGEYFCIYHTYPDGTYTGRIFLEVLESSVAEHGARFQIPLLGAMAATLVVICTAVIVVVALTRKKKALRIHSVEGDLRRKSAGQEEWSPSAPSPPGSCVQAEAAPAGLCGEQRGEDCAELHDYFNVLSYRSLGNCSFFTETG
Assay: flow cytometry on CHO-K1 cells expressing human TIGIT
experimental_readout: EC50 (nM)

binder="huTIGIT-6-3 (antibody, human IgG1, kappa, V domains shown, Humanized IgG; also called 6VH6.M6 + 6VL1.M1) VH: QVQLVQSGAEVKKPGASVKVSCKASGYTFTENAMHWVRQAPGQRLEWIGGINPNQGGTSYSQKFQGRATLTVDTSASTAYMELSSLRSEDTAVYYCTRSSYYRYDLDYWGQGTTVTVSS VL: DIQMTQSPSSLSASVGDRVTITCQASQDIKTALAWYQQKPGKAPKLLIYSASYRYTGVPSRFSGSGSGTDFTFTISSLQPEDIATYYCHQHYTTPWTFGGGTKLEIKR" unit_name=nM measurement=1.11
binder="huTIGIT-19-3 (antibody, human IgG1, kappa, V domains shown, Humanized IgG; also called 19VH4.M10 + 19VL1.M4) VH: QVQLVQSGAEVKKPGASVKVSCKASGYTFTRYSMYWVRQAPGQGLEWIAFIDAYSGGSTYAQKFQGKATLTVDTSISTAYMELSRLRSDDTAVYYCARGGDYGWYLGVWGQGTLVTVSS VL: DIQMTQSPSSLSASVGDRVTITCRPSENIYTYLSWYQQKPGKAPKLLIYNAKSLPSGVPSRFSGSGSGTDFTLTISSLQPEDFATYYCQHHYGNPLTFGQGTKVEIKR" unit_name=nM measurement=0.196
binder="Hu1217-2-2 (anti-TIGIT positive control antibody) (antibody, V domains shown) VH: EVQLVESGGGLVQPGGSLRLSCAASGFTFSDYYMYWVRQAPGKGLEWVAYITKGGGSTYYPDSVKGRFTISRDNAKNTLYLQMNSLRAEDTAVYYCARQTNYDFTMDYWGQGTLVTVSS VL: EIVMTQSPATLSVSPGERATLSCKASQDVGTSVAWYQQKPGQAPRLLIYWASARHTGIPARFSGSGSGTEFTLTISSLQSEDFAVYYCQQYSSYPLTFGGGTKVEIK" unit_name=nM measurement=0.65
binder="huTIGIT-6-1 (antibody, human IgG1, kappa, V domains shown, Humanized IgG; also called 6VH6.M4 + 6VL1.M1) VH: QVQLVQSGAEVKKPGASVKVSCKASGYTITENTMHWVRQAPGQRLEWIGGINPNQGGTSYSQKFQGRATLTVDTSASTAYMELSSLRSEDTAVYYCTRSSYYRYDLDYWGQGTTVTVSS VL: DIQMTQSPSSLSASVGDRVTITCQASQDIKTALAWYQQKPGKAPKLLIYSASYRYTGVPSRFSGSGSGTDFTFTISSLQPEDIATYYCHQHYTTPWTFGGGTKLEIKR" unit_name=nM measurement=1.16
